FYI, the data here is from PubChem BioAssay (NCI).

# TGI per record follows
System: NCI-H226 lung
Assay: NCI tumour cell line growth inhibition, 48 h

O=c1[nH]nc(-c2ccccc2)n1-c1ccncc1 :: > 100 µM
CCOC(=O)c1c(NC(=O)c2cccs2)sc2c1CCC2 :: > 100 µM
O=C1CSSCC(=O)Nc2ccccc2N1 :: > 100 µM
COc1ccccc1N(CN1C(=O)CCC1C(=O)O)C(C)=O (stereo not given) :: > 100 µM

# next compound below
-- ask Using the record for `c1ccc2c(c1)CC1=C(O2)c2ccccc2OC1` , state its measured TGI.
-- reply > 100 µM

====

Tested on: SW-620 colon
Experiment: NCI tumour cell line growth inhibition, 48 h
# TGI per record follows

CS(=O)(=O)CCNCc1ccc(-c2ccc3ncnc(Nc4ccc(OCc5ccccc5)cc4)c3c2)o1 :: > 17.3 µM
Cc1ccc(S(=O)(=O)c2ccsc2NC(=O)C(F)(F)F)cc1 :: > 100 µM
O=C1CCC(N2C(=O)c3ccccc3C2=O)C(=O)N1CO (configuration not stated) :: > 100 µM
CCOC(=O)N(NC(=O)NC(C)C)c1ccccc1 :: > 100 µM
CC(C)NC(NC(C)C)=C(S(=O)(=O)C(F)(F)C(F)(F)C(F)(F)C(F)(F)F)S(=O)(=O)C(F)(F)C(F)(F)C(F)(F)C(F)(F)F :: > 100 µM
CCCCCCCC(=O)OCC/C=C/C1OC1C1OC(=O)/C=C\C=C\c2nc(oc2C)/C=C(/C)CCC2OC2C1OC(=O)NC(C)=O (configuration not stated) :: 1.07 µM

# next molecule below
-- ask Using the record for NC1=NC(c2ccccc2)CC(c2cc(Cl)ccc2O)=N1 (configuration not stated) , state its measured TGI.
-- reply 27 µM

====

# log10 TGI per record follows
System: U251 CNS
Experiment: NCI tumour cell line growth inhibition, 48 h
Units before log transform: µM; reported quantity: TGI; transform: log10.

Examples with answers:
COc1ccc(C(=O)C#Cc2cnc(OC)nc2OC)cc1 :: 0.42
Cc1ccc(-c2nc3nc(-c4ccccc4)nc(N4CCCNCC4)c3o2)cc1 :: 0.46

-- ask Using the record for `CCOCC(=O)N[C@H]1CCc2cc(OC)c(OC)c(OC)c2-c2ccc(OC)c(=O)cc21` , state its measured log10 TGI.
-- reply 0.95

-- ask Using the record for `COc1cc(/C=N\N(C)C)cc(/C=N/N(C)C)c1O` , state its measured log10 TGI.
-- reply 1.87

-- ask Using the record for COc1cc(/C=C2/SC(c3ccccc3)N(c3ccccc3Cl)C2=O)cc(OC)c1OC (configuration not stated) , state its measured log10 TGI.
-- reply 1.83

-- ask Using the record for `C/C(Cl)=N/OC(=O)Nc1ccc(S(N)(=O)=O)c(C)c1` , state its measured log10 TGI.
-- reply 1.53

-- ask Using the record for `CCCCCCCC[C@@H](O)CC(=O)N[C@@H](CC(N)=O)C(=O)N[C@@H](CCC(N)=O)C(=O)N[C@@H](CC(=O)c1cc(C)cc(O)c1C(=O)c1c(O)cccc1O)CC(C)C` , state its measured log10 TGI.
-- reply 0.37

====

# TGI per record follows
Tested on: TK-10 renal
Experiment: NCI tumour cell line growth inhibition, 48 h

Cc1cccc(C(C)C)c1NC(=O)/C(Cc1c([N+](=O)[O-])cccc1[N+](=O)[O-])=N/NC(=O)CC#N :: > 100 µM
CCOCC(=O)N[C@H]1CCc2cc(OC)c(OC)c(OC)c2-c2ccc(OC)c(=O)cc21 :: > 100 µM
CCOC(=O)C1(Cc2ccccc2)C=CN(C(=O)c2ccccc2)C=C1 :: 88.3 µM

-- ask Using the record for `COc1ccc2c(c1)-c1nc(=S)n(CCCN(C)C)c3ccc([N+](=O)[O-])c(c13)N2` , state its measured TGI.
-- reply 17.1 µM

-- ask Using the record for COC(=O)c1cc2c(cc1CC1Cc3cc4c(cc3C1=O)CCC4)CCC2 (stereo unspecified) , state its measured TGI.
-- reply > 100 µM

-- ask Using the record for `C=C1[C@H](OC(C)=O)[C@H]2[C@@H](OC(C)=O)[C@@H](C)C[C@]2(C)C(=O)[C@H](C)/C=C/C(C)(C)C(=O)[C@H](OCC(C)C)[C@H]1OC(C)=O` , state its measured TGI.
-- reply > 25 µM

====

# TGI per record follows
Test system: SF-539 CNS
Assay: NCI tumour cell line growth inhibition, 48 h
Please reply with the bare figure in µM and do not write the unit itself.

Examples with answers:
O=c1c2ccccc2[nH]c2c(Cl)cc(Cl)c(NC3CCCCC3)c12 :: 57.8
N#CSC1CCCCNC1=O (configuration not stated) :: 26.5

-- ask Report its TGI with SF-539 CNS as the test system: `COc1ccc(N2C(=O)/C(=C/c3ccc(N(CCC#N)CCC#N)cc3C)N=C2c2cc([N+](=O)[O-])ccc2Cl)cc1`
-- reply 7.22

====

Tested on: TK-10 renal
Test: NCI tumour cell line growth inhibition, 48 h
assayReadout: TGI

Examples with answers:
Cc1cc(Cl)cc2c1NC(=O)C2(O)CC(=O)c1ccco1 (stereo not given) :: > 100 µM
O=C1c2ccccc2C(=O)N1CCc1ncc[nH]1 :: > 100 µM
NC(=O)COC(=O)c1c(Cl)nc2sccn12 :: > 100 µM
COc1ccc(N2C(=O)/C(=C/c3ccc(N(CCC#N)CCC#N)cc3C)N=C2c2cc([N+](=O)[O-])ccc2Cl)cc1 :: > 63.1 µM

-- ask Report its TGI with TK-10 renal as the test system: `COc1ccc2c(c1)CCCN2c1c2ccccc2nc2ccccc12`
-- reply > 100 µM

====

Tested on: SF-539 CNS
Assay: NCI tumour cell line growth inhibition, 48 h
# TGI per record follows

Examples with answers:
[Cl-].[Rh+3].c1cnc2c(c1)ccc1cccnc12.c1cnc2c(c1)ccc1cccnc12.c1cnc2c(c1)ccc1cccnc12 :: > 100 µM
Cc1cc(-c2cnn3c(NCC4CC(C)(O)C4)cc(Oc4cccnc4)nc23)ccc1C(=O)NC1CC1 (centres undefined) :: > 100 µM
COc1ccc(C[C@@H](CO)NC2=C(C#N)CCC2)cc1 :: > 100 µM

# next compound below
-- ask Using the record for `O=C(N/C(=C\c1cccc([N+](=O)[O-])c1)c1nc2ccc([N+](=O)[O-])cc2[nH]1)c1ccccc1` , state its measured TGI.
-- reply > 100 µM
